- assay: BSK_BT_Bcell_Proliferation: Viability Assessment in the BioMAP Diversity Plus: BT Assay for B cell Proliferation (AID 2284227)
- measurement.conditions: primary human B cells with PBMC
Active and inactive are the calls of the source. How the source made its calls: active means hit-call score of the fitted dose curve at least 0.9, where 1 is the maximum; inactive means score below 0.9.
Outcome codes: active, inactive

compound: COCN(COC)c1nc(N(COC)COC)nc(N(COC)COC)n1
assigned.class: inactive
--
compound: Clc1ccc(Nc2nnc(Cc3ccncc3)c3ccccc23)cc1
assigned.class: inactive
--
compound: O=C(O)CCC(F)(F)C(F)(F)C(F)(F)C(F)(F)C(F)(F)C(F)(F)F
assigned.class: inactive
--
compound: O=C1OC2(c3ccccc31)c1cc(I)c(O)c(I)c1Oc1c2cc(I)c(O)c1I
assigned.class: inactive
--
compound: COC1=CC(=O)C[C@@H](C)[C@]12Oc1c(Cl)c(OC)cc(OC)c1C2=O
assigned.class: active
--
compound: C=CC(C)(CCC=C(C)C)OC(C)=O (configuration not stated)
assigned.class: inactive
--
compound: NC(=NCCCCCCN=C(N)/N=C(\N)Nc1ccc(Cl)cc1)/N=C(\N)Nc1ccc(Cl)cc1
assigned.class: active
--
compound: O=S(=O)(O)C(F)(F)C(F)(F)C(F)(F)C(F)(F)C(F)(F)C(F)(F)C(F)(F)C(F)(F)C(F)(F)C(F)(F)F
assigned.class: inactive
--
compound: O=C(NCc1ncc(C(F)(F)F)cc1Cl)c1c(Cl)cccc1Cl
assigned.class: active
--
compound: Cc1ccc(C(=O)c2ccccc2)cc1
assigned.class: inactive
--
compound: O=C1c2ccc(O)c(O)c2C(=O)c2c(O)ccc(O)c21
assigned.class: inactive
--
compound: CC1=NN(c2ccccc2)C(=O)C1
assigned.class: inactive
--
compound: C=COC(=O)C(C)(C)CCCCCC
assigned.class: inactive
--
compound: CC[N+](CC)(CC)Cc1ccccc1
assigned.class: inactive
--
compound: CC(C)(C)c1ccc(O)c(O)c1
assigned.class: active
--
compound: O=C(NO)c1ccccc1
assigned.class: inactive
--
compound: COc1cccc(O)c1
assigned.class: inactive

----------
- assay: BSK_BT_PBMCCytotoxicity: PBMC Cytotoxicity Assessment in the BioMAP Diversity Plus: BT Assay (AID 2284225);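 further: PBMC viability measured by Alamar Blue dye reduction fluorescence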
- measurement.conditions: primary human B cells with PBMC
Active and inactive are the calls of the source. Rule for the calls: active = hit-call score of the fitted dose curve at least 0.9, where 1 is the maximum; inactive = score below 0.9.
Outcome codes: active, inactive

item.smiles: Cc1ccc(C(=O)c2ccccc2)cc1
assigned.class: inactive

item.smiles: CCCCCc1ccc(O)cc1
assigned.class: inactive

item.smiles: CC1=NN(c2ccccc2)C(=O)C1
assigned.class: inactive

item.smiles: Oc1cc2ccccc2cc1O
assigned.class: inactive

item.smiles: COc1cc(OC)nc(NC(=O)NS(=O)(=O)Nc2ccccc2C(=O)N(C)C)n1
assigned.class: inactive

item.smiles: C=CC(=C)CC/C=C(\C)CCC=C(C)C
assigned.class: inactive

item.smiles: CN(C)c1ccc(C(=C2C=CC(=[N+](C)C)C=C2)c2ccccc2)cc1
assigned.class: active

item.smiles: COc1cccc(O)c1
assigned.class: inactive

----------
- Read-out: Matrix Metallopeptidase 1 (MMP1), MMP1 (gene 4312)
- assay: BSK_hDFCGF_MMP1: BioMAP Diversity Plus: hDFCGF Assay for Matrix Metallopeptidase 1 (MMP1) Biomarker Activity (AID 2283064)
- measurement.conditions: primary human foreskin fibroblasts; actives raise or lower the signal
Calls of active or inactive are those of the source. The calls were made as follows: active = hit-call score of the fitted dose curve at least 0.9, where 1 is the maximum; inactive = score below 0.9.
Outcome codes: 1 (yes) for active, 0 (no) for inactive

compound: COCN(COC)c1nc(N(COC)COC)nc(N(COC)COC)n1
assigned.class: 0 (no)
--
compound: CCCCc1oc2ccccc2c1C(=O)c1cc(I)c(OCCN(CC)CC)c(I)c1
assigned.class: 1 (yes)
--
compound: CCCCCCCCCCCCCCC
assigned.class: 0 (no)
--
compound: O=C(NCc1ncc(C(F)(F)F)cc1Cl)c1c(Cl)cccc1Cl
assigned.class: 0 (no)
--
compound: CCCCC(CC)C(=O)OCCOCCOCCOCCOC(=O)C(CC)CCCC (stereo not drawn)
assigned.class: 0 (no)
--
compound: O=C1NS(=O)(=O)c2ccccc21
assigned.class: 0 (no)
--
compound: C[C@]12CC[C@@H]3c4ccc(O)cc4CC[C@H]3[C@@H]1C[C@@H](O)[C@@H]2O
assigned.class: 0 (no)
--
compound: OCCN1CN(CCO)CN(CCO)C1
assigned.class: 0 (no)

----------
- Read-out: E-selectin (Homo sapiens)
- assay: BSK_LPS_Eselectin: BioMAP Diversity Plus: LPS Assay for Eselectin Biomarker Activity (AID 2283077)
- measurement.conditions: primary human HUVEC with PBMC; actives raise or lower the signal
The source made the active and inactive calls. How the source made its calls: active means hit-call score of the fitted dose curve at least 0.9, where 1 is the maximum; inactive means score below 0.9.
Outcome codes: true for active, false for inactive

compound: CN(C)c1ccc(C(=C2C=CC(=[N+](C)C)C=C2)c2ccccc2)cc1
assigned.class: true
--
compound: CCCCCCCCCCCCCCCCCC[N+](C)(C)Cc1ccccc1
assigned.class: true
--
compound: CCCCC=O
assigned.class: false
--
compound: O=C(CCCN1CCC(O)(c2ccc(Cl)cc2)CC1)c1ccc(F)cc1
assigned.class: true
--
compound: CC(=O)Nc1ccc(O)cc1
assigned.class: false
--
compound: O=C1c2ccc(O)c(O)c2C(=O)c2c(O)ccc(O)c21
assigned.class: false
--
compound: N=C(N)c1ccc(OCCCCCOc2ccc(C(=N)N)cc2)cc1
assigned.class: false
--
compound: C=CC(=O)OCCC(F)(F)C(F)(F)C(F)(F)C(F)(F)C(F)(F)C(F)(F)C(F)(F)C(F)(F)F
assigned.class: false
--
compound: CN(Cc1cnc2nc(N)nc(N)c2n1)c1ccc(C(=O)N[C@@H](CCC(=O)O)C(=O)O)cc1
assigned.class: false
--
compound: O=C(NO)c1ccccc1
assigned.class: false
--
compound: COc1cccc(O)c1
assigned.class: false
--
compound: Oc1ccc(Cc2ccccc2O)cc1
assigned.class: false
--
compound: O=C1OC2(c3ccccc31)c1cc(I)c(O)c(I)c1Oc1c2cc(I)c(O)c1I
assigned.class: true
--
compound: CN(CCO)S(=O)(=O)C(F)(F)C(F)(F)C(F)(F)C(F)(F)C(F)(F)C(F)(F)C(F)(F)C(F)(F)F
assigned.class: false
--
compound: Clc1ccc(Nc2nnc(Cc3ccncc3)c3ccccc23)cc1
assigned.class: false
--
compound: CCCCCc1ccc(O)cc1
assigned.class: true
--
compound: C=CC(=C)CC/C=C(\C)CCC=C(C)C
assigned.class: false
--
compound: CCCCC(CC)C(=O)O (stereo not given)
assigned.class: false
--
compound: CCCCCCCCCCCCOS(=O)(=O)O
assigned.class: false
--
compound: Cc1[nH]nc2c1N=C(c1ccccc1Cl)c1cc([N+](=O)[O-])ccc1N2
assigned.class: true

----------
- assay: ATG_DR4_LXR_CIS: Attagene CIS-FACTORIAL HepG2 Assay for human Liver X Receptor (LXR), DR4 submotif (AID 2282929)
- measurement.conditions: HepG2 Attagene DR4 cis-reporter, mRNA transcription; actives raise or lower the signal unless noted
Calls of active or inactive are those of the source. Rule for the calls: active = hit-call score of the fitted dose curve at least 0.9, where 1 is the maximum; inactive = score below 0.9.

item.smiles: O=C(C=C(O)C(F)(F)F)C(F)(F)F
outcome: inactive
//
item.smiles: O=C(F)C(F)(F)C(F)(F)C(F)(F)C(F)F
outcome: inactive
//
item.smiles: O=C(F)C(F)(F)C(F)(F)C(F)(F)C(=O)F
outcome: inactive
//
item.smiles: O=C1C=CC(=O)N1c1cccc(N2C(=O)C=CC2=O)c1
outcome: inactive
//
item.smiles: CCCCCCCCCCCCCCCC(=O)OC
outcome: inactive
//
item.smiles: CCCCC=O
outcome: inactive
//
item.smiles: O=CC(F)(F)C(F)(F)C(F)(F)F
outcome: inactive

----------
- Read-out: Interferon-gamma inducible Protein 10 (IP10), CXCL10 (gene 3627)
- assay: BSK_KF3CT_IP10: BioMAP Diversity Plus: KF3CT Assay for Interferon-gamma inducible Protein 10 (IP10) Biomarker Activity (AID 2283068)
- measurement.conditions: primary human keratinocytes with fibroblasts; actives raise or lower the signal
Activity calls are given as the source filed them. How the source made its calls: active means hit-call score of the fitted dose curve at least 0.9, where 1 is the maximum; inactive means score below 0.9.
Outcome codes: active, inactive

compound: O=C(O)CCC(F)(F)C(F)(F)C(F)(F)C(F)(F)C(F)(F)F
assigned.class: inactive
//
compound: CC[N+](CC)(CC)Cc1ccccc1
assigned.class: inactive
//
compound: O=P(O)(O)CCC(F)(F)C(F)(F)C(F)(F)C(F)(F)C(F)(F)C(F)(F)F
assigned.class: inactive
//
compound: O=C(O)CCC(F)(F)C(F)(F)C(F)(F)C(F)(F)C(F)(F)C(F)(F)F
assigned.class: inactive
//
compound: CCCCCCCCCCCCOS(=O)(=O)O
assigned.class: active
//
compound: CCOC(=O)CN[C@@H](C(=O)N1CC[C@H]1C(=O)NCc1ccc(/C(N)=N/O)cc1)C1CCCCC1
assigned.class: inactive
//
compound: NC(=NCCCCCCN=C(N)/N=C(\N)Nc1ccc(Cl)cc1)/N=C(\N)Nc1ccc(Cl)cc1
assigned.class: active
//
compound: O=C(c1ccccc1)c1ccccc1
assigned.class: inactive
//
compound: O=C1NS(=O)(=O)c2ccccc21
assigned.class: inactive
//
compound: OCCN1CN(CCO)CN(CCO)C1
assigned.class: inactive
//
compound: CC1=NN(c2ccccc2)C(=O)C1
assigned.class: inactive
//
compound: CCCCC=O
assigned.class: inactive
//
compound: C=COC(=O)C(C)(C)CCCCCC
assigned.class: active
//
compound: O=P(O)(O)CCC(F)(F)C(F)(F)C(F)(F)C(F)(F)C(F)(F)C(F)(F)C(F)(F)C(F)(F)F
assigned.class: inactive
//
compound: CCCCC(CC)C(=O)OCCOCCOCCOCCOC(=O)C(CC)CCCC (centres undefined)
assigned.class: inactive
//
compound: CN(C)c1ccc(C(=C2C=CC(=[N+](C)C)C=C2)c2ccccc2)cc1
assigned.class: active
//
compound: CN(C)CCOC(c1ccccc1)c1ccccc1
assigned.class: inactive
//
compound: O=C1OC2(c3ccccc31)c1cc(I)c(O)c(I)c1Oc1c2cc(I)c(O)c1I
assigned.class: active
//
compound: C=CC(=C)CC/C=C(\C)CCC=C(C)C
assigned.class: inactive
//
compound: Cc1ccc(N=Nc2c(O)ccc3ccccc23)c(C)c1
assigned.class: inactive
//
compound: CC(=O)Nc1ccc(O)cc1
assigned.class: inactive
//
compound: CN(CCO)S(=O)(=O)C(F)(F)C(F)(F)C(F)(F)C(F)(F)C(F)(F)C(F)(F)C(F)(F)C(F)(F)F
assigned.class: inactive
//
compound: C=CC(=O)OCCC(F)(F)C(F)(F)C(F)(F)C(F)(F)C(F)(F)C(F)(F)C(F)(F)C(F)(F)F
assigned.class: inactive
//
compound: CCCCC(CC)C(=O)O (centres undefined)
assigned.class: inactive
